# Test system: Lactobacillus plantarum HAC03
# measurement.protocol: in vitro Simulated Stomach Duodenum Passage (SSDP) probiotic survivability, lyophilized HAC03
# Assay type: cell-based
# condition: Table 3; carbohydrate mixed with HAC03 lyophilizate
value.kind: Artificial Gastric Juice Survivability (%)

- C[C@H](O)[C@H](O)[C@@H](O)[C@@H](O)C=O [Rhamnose]: 40.75
- OC[C@@H](O)[C@@H](O)[C@H](O)[C@@H](O)CO [Sorbitol]: 82.06
- OC[C@H]1O[C@H](O[C@H]2[C@H](O)[C@@H](O)C(O)O[C@@H]2CO)[C@H](O)[C@@H](O)[C@@H]1O (mixture of isomers) [Maltose]: 85.43
- OC[C@H]1O[C@@](CO)(O[C@H]2O[C@H](CO)[C@@H](O)[C@H](O)[C@H]2O)[C@@H](O)[C@@H]1O [Sucrose]: 80.90
